tested target: GST-Rok (full length) (Bacillus subtilis subsp. subtilis str. …, UniProt O34857 1-191)
Sequence: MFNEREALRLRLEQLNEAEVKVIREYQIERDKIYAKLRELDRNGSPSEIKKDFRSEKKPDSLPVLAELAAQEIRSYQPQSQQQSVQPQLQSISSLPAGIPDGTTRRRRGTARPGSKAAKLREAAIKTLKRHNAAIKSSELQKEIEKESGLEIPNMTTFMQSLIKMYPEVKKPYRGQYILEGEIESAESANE
measurement description: protein binding microarray; high values mean tight binding
experimental parameters: protein: recombinant; tags: GST (pTH5325, pDEST15-Magic modified); dsDNA, one strand shown
In all, about 33,000 sequences were measured (“e-score”: median about -0.037, highest 2% from about 0.34 on). Many of the other results were omitted from the sample, so the highest values are more common in it than they were.
measurement label: binding signal (E-score)

CAATCTAG = 0.285
CGCATCGC = -0.115
GCTATCTA = 0.33
GTAATCTA = 0.245
ATATCTGC = 0.221
ACATCTAG = 0.325
ACCGGCAT = -0.0275
ATATCTAA = 0.371
CAATACTA = 0.261
CTAATCAA = 0.165
CCAAGTGG = -0.0692
CTATCTAC = 0.433
CACGTATG = 0.0605
CAATCTAA = 0.172
ATATCTAC = 0.393
ACTATCTA = 0.397
CAATACGA = 0.00373
AAATACTC = 0.227
GAATACTA = 0.295
GTCCGTCA = -0.0558
CAATCTAC = 0.365
CGCTATTA = 0.211
AAATACGA = 0.118
ACGCAGAG = -0.119
GAATCTCC = 0.00693
CGATCTAA = -0.00615
CTATCTAA = 0.264
CGATCTAG = 0.214
ACAATCGG = 0.00195
CTCTAACC = -0.055
ATCTCTAC = 0.0894
ACCGGCCG = -0.0951
CTATCTTC = 0.11
ATAATCTA = 0.352
TCTATCAA = 0.212
ACTATCTC = 0.128
AAAGAACA = -0.199
ATGTCGGC = 0.0255
CGGAATTA = 0.239
GAGCCCAA = -0.192
AAATACTA = 0.454
AGATCTAG = 0.167
CTAATCTA = 0.362
TAATACTA = 0.419
TAATACGA = 0.377
CGATCTAC = 0.371

* * *

tested target: GST-Rok (full length) (Bacillus subtilis subsp. subtilis str. …, UniProt O34857 1-191)
Sequence: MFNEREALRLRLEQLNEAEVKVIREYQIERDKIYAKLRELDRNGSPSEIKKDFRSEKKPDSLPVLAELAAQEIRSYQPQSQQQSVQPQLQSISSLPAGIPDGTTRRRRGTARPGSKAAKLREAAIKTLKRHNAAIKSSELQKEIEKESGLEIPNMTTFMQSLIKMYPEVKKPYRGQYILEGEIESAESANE
measurement description: protein binding microarray; high values mean tight binding
experimental parameters: protein: recombinant; tags: GST (pTH5325, pDEST15-Magic modified); dsDNA, one strand shown
Whole data set: some 33,000 sequences, median “e-score” near -0.037, cut for the highest 2% near 0.34. Only a selection was taken, and the highest values are over-represented in it overall.
Our labelling divides records by binding signal into ranges: range A: < 0.03 E-score; range B: ≥ 0.03 E-score and < 0.3 E-score; range C: ≥ 0.3 E-score

CCACTGCC = range A
ACACTACG = range A
AGTAGAAC = range B
CTATGATA = range B
CAAGAAAA = range A
TGTATTAA = range B
CGGACTTC = range A
ATTAGAAA = range B
AGACTACC = range B
AACTAGAG = range B
CGTCGCAA = range A
AATATTAA = range C
CTAAGGGA = range A
AAGCCTCT = range A
AAGTGACG = range B
TATATTAA = range C
AATCTAGG = range B
CAACTAAA = range B
GGCTAGAA = range A
TCGATTAA = range B
CAATGGTA = range C
ACGGTACG = range A
AACTAGAA = range C
AAGGCGGT = range A
CATAGTAG = range B
GTACGGCA = range A
CCCGGTAG = range A
CGTTTGTC = range A
CGTGATAA = range B
TTCTACAA = range C
TAATTTCA = range B
AAATTCTC = range B
GACTAGAA = range B
CTATAAGC = range B
CTGGCAAA = range A
AGACCAAT = range A
GGTAGATA = range C
ATCTTTCG = range B
GAGTACCA = range A
CTGATAAG = range B
AACTAGAT = range C
CATCGTTC = range A
TATATGGA = range C
CTCGAAAG = range A
AATCTAGT = range C
TTGGTAAA = range B
AATCTAGC = range B
CACAGTAG = range B
ATTAGATA = range C
CATCACAG = range A
ATGAGATA = range C
AATATTTA = range C
CTATACAC = range B
GTTAGATA = range B
ACCGGTGG = range A
AGTAGAGA = range B
TATATTGA = range B
ACTATAGC = range B
AGTAGATG = range B
AGCGGTAC = range A
TGCTAGAA = range C
AAACTACG = range C
AAACTAAG = range C
CTTACCAC = range A
CATATGGA = range A
CAACTACG = range B
AGTATAGA = range B
CGCATTCC = range A
AGGCGCTA = range A
AATCTAGA = range C
AACTAGAC = range B
ATATACAA = range C
AATGCACG = range A
CATATTAC = range B
ACACTACT = range B
GATATTAC = range C
AATCTAAT = range B
GATATTAA = range C
GGTCTAAA = range A
AAGCAAGG = range A
AAACTACC = range C
GCAATACA = range B
AGCTACAC = range B
ACTATAGT = range C
AATAGAGA = range B
CGAAAGGC = range A
AGCGGTAT = range C

* * *

tested target: GST-Rok (full length) (Bacillus subtilis subsp. subtilis str. …, UniProt O34857 1-191)
Sequence: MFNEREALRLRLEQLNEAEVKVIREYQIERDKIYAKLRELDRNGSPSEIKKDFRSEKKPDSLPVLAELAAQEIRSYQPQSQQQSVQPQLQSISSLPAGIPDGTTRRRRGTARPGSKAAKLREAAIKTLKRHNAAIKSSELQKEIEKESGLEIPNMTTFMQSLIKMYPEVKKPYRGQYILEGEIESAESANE
measurement description: protein binding microarray; Rok is a gene silencer of Bacillus subtilis; high values mean tight binding
experimental parameters: protein: recombinant; tags: GST (pTH5325, pDEST15-Magic modified); dsDNA, one strand shown
Whole data set: some 33,000 sequences, median “e-score” near -0.037, cut for the highest 2% near 0.34. The entries come from a sample that favours the highest values as a whole.
Note to self: use Y only for binding signal readings below 0.2 E-score; a reading exactly at 0.2 E-score still gets N.

ACTACCAG = N
AGTCAATA = N
CTTATATC = Y
ATTAGTTG = N
ATTATAGG = N
CTGTAGAA = N
CATAAAGA = Y
GGTAGTTA = N
ACTACCAT = N
AGCGCTGG = Y
AAGGAGTC = Y
GTGATTCA = Y
ATTATATC = N
ACTTACCT = Y
AATTAAGG = Y
CGCCCTTA = Y
ATTGTACG = N
CAAACCTA = Y
AATTTACC = N
ATAAACAA = Y
GAACTAGC = Y
CTTATAGA = Y
GATTTACC = N
CGACGCAA = Y
AAACTAGT = N
ACTACCAA = N
TCGAGAAA = Y
GGCTCTAA = Y
AGCGTGGG = Y
CTGCCCAC = Y
TAAGGTAA = Y
CAAACCAG = Y
GGGAATGA = Y
AAACTAGC = N
AATAATGT = N
CAACTTAC = N
ACCCTGTC = Y
AAATGCTC = Y
CGTAAAAA = Y
ACCAACAA = Y
CGTAGTTA = Y
GCTACCAC = Y
ATTATATA = N
GTTAATAA = N
CGTTTGAA = Y
CAGATTAG = Y
ATGTAGAC = N
CTTCGCCA = Y
ACGTCAAG = Y
CCATATCC = Y
AAGAAGAG = Y
ACCAGTGC = Y
CATGCTGA = Y
AGGAAGAA = Y
AGTAGTTC = N
CGGGTACA = Y
TATGTACA = N
AGATTTTA = N
CAACTGAA = Y
ACTAGACC = Y
ATGTAGAA = N
ATAGGTCA = Y
TCGCACAA = Y
CATGTACA = N
ATTATATG = N
AATTTACA = N
AGTTAAGC = Y
AGTAGTGA = Y
GTCAACAA = Y
CCTACCAC = N
ATATCGAT = N
GGCAGCTA = Y
GTCCAGAA = Y
ATTAAATG = Y
AGATTACG = Y
AAAACCTA = N
CCTCTTAC = Y
AGCCCGTG = Y
CACCATCG = Y
TAAGCTGA = Y
TCCGGTAA = Y
ACCTTCTG = Y
CCTATATC = Y
CATTCTTC = Y
ACTACTCG = Y
GAGTGAAA = Y
TAAAGCCA = Y
AGTGCGTC = Y
CGTAGTTC = N
ACACTAGT = N
